test: binders of probe aFGF10 on microarray, primary screen, stem cell growth factor project, biochemical, small-molecule microarray, fluorescence 635/667 (AID 1071); details: higher = more signal;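 further: score merges 667 nm spot intensity and signal to noise from triplicate slides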
Met means recorded composite z-score is 0.2 or above; Not met means it is below 0.2.

Examples from the recorded data:
Q: Could you verify whether the entry `O=c1n(Cc2cc3c(cc2Cl)OCO3)c(=O)n2n1CC[C@@H]1C(=NOC[C@@H](O)COCc3ccco3)[C@H]3O[C@H]3[C@@H](O)[C@@H]12` shows composite z-score of no less than 0.2?
A: Met

Q: Is composite z-score at least 0.2? Consider `C[n+]1ccc(-c2ccc(CO)cc2)cc1`
A: Not met

Q: Hi, just wondering whether CCOC(=O)[C@H](CC(C)C)NC(=O)CCC1CC(OC(=O)NCc2cccc3ccccc23)CC2(CCCC(COC(=O)NCCOc3ccccc3)O2)O1 (stereo partly specified) shows composite z-score of 0.2 or higher.
A: Met

Next:
Q: Is reported composite z-score greater than or equal to 0.2 here: COC(=O)[C@H](C)NC(=O)CCC1CC(OC(=O)NCc2ccc3c(c2)OCO3)CC2(CCCC(COC(=O)NCC(c3ccccc3)c3ccccc3)O2)O1 (stereo partly specified)
A: Met

Q: Determine whether this molecule has composite z-score no lower than 0.2: `CO[C@H]1COC(=O)[C@@H]2CCCN2C(=O)CC=C[C@@H](C)[C@H](OC)COC(=O)[C@@H](OCc2ccccc2)C=C[C@@H]1C`
A: Not met

Q: hey, is composite z-score for this one >= 0.2? `Cc1ccc(S(=O)(=O)n2c3ccccc3c3nnc(C(=O)c4ccccc4)nc32)cc1`
A: Met

###

Measured z-score by item
target: Homeobox protein Hox-A13 (Mus musculus); assay: inhibitors of HoxA13-DNA binding, primary screen, biochemical, fluorescence polarization, labeled oligonucleotide (AID 1185); conditions: 15 min, higher = more signal, called active from +8 up or from −8 down
Number only, please.

Q: What value of z-score has been reported for the following compound? `CO[C@H]1COC(=O)[C@@H](Cc2ccccc2)NC(=O)[C@@H](C)COC(=O)CCC[C@@H]1C`
A: -0.733

Q: Entry `COC(=O)CC=C[C@H](C)[C@@H](OCc1cccc(Br)c1)[C@@H](C)[C@H](OC)C1CCCCC1` has what z-score?
A: 0.0373

Further cases:
Q: Fill in the blank: the reported z-score of `O=C(NN=C1C[C@@H](O)[C@@H](O)[C@@H]2[C@@H]3C(=O)N(C4CCCCC4)C(=O)[C@@H]3CC[C@@H]12)OCc1ccccc1` is ____.
A: -3.09

Q: # input compound: `C[C@@H](c1ccccc1)N1C(=O)[C@H]2[C@H]3[C@H](O)[C@H](O)CC(=O)[C@H]3CC[C@H]2C1=O` ; wanted: its z-score
A: 0.0632

Q: Any idea what its z-score is? The compound is `C[C@H]1CC[C@H]2C(=O)O[C@H](COc3ccc(C(C)(C)C)cc3)CN2[C@@H]1c1ccc(Br)cc1`
A: 1.13

Q: Suppose we examine the compound `COc1ccc(COC(=O)NN=C2C[C@@H](O)[C@@H](O)[C@@H]3[C@@H]4C(=O)N(C5CCCCC5)C(=O)[C@@H]4CC[C@H]23)cc1` ; what z-score value has been reported?
A: -5.48

Q: Which measured z-score value corresponds to `Cc1ccc(S(=O)(=O)N[C@@H]2COC(=O)[C@@H](C)COC(=O)CC=C[C@H]2C)cc1` ?
A: -0.0483

Q: What z-score value was documented for this compound, CCOC(=O)[C@H](Cc1ccccc1)NC(=O)CCC1CC(OC(=O)NCCc2ccc(F)cc2)CC2(CCCC(COC(=O)NCCOC)O2)O1 (stereo partly specified) ?
A: -6.28

Q: # query: z-score of entry `CON=Cc1ccc(C(=O)N2[C@H](c3ccc(C)cc3)[C@@H](C)CC[C@H]2C(=O)OC)cc1`
A: -3.49

Q: Fill in the blank: the reported z-score of `CC(C)CON=C1[C@H]2CCn3c(=O)n(Cc4cc5c(cc4Cl)OCO5)c(=O)n3[C@H]2[C@H](O)[C@@H]2O[C@H]12` is ____.
A: 1.8

Q: Query: z-score; subject: `COC(=O)CC=C[C@@H](C)[C@@H](C=NO[C@@H]1O[C@H](COC(C)=O)[C@@H](OC(C)=O)[C@H](OC(C)=O)[C@H]1OC(C)=O)OC`
A: -2.16

Q: I'd like to know its z-score. The compound in question is CCOC(=O)[C@H](CC(C)C)NC(=O)CCC1CC(OC(=O)NCc2cccc3ccccc23)CC2(CCCC(COC(=O)NCc3cccc(C(F)(F)F)c3)O2)O1 (stereo partly specified)
A: -0.443

Q: Consider the compound shown here: `CCOC(=O)NN=C1C[C@@H](O)[C@@H](O)[C@@H]2[C@@H]3C(=O)N(c4ccc(F)cc4F)C(=O)[C@@H]3CC[C@@H]12` What is its recorded z-score?
A: -1.23

Q: Fill blank: measured z-score of the compound `CCCCC#C[C@@H]1C=C[C@H](Oc2cc(OC)c(OC)c(OC)c2)[C@@H](COC(=O)OCC)O1` is ____.
A: -5.07
